- test_system: HIV-1 JR-CSF Env K421A (HIV-1 (isolate JR-CSF)) (UniProt P20871)
- test_method_notes: cell-based or functional assay
endpoint_name: Fold IC50 increase relative to wild-type (fold)
Answers are plain numbers, in fold.

PGT-130 (antibody, V domains shown) VH: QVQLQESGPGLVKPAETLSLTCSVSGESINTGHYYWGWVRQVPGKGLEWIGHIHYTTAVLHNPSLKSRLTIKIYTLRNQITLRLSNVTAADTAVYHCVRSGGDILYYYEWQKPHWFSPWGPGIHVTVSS VL: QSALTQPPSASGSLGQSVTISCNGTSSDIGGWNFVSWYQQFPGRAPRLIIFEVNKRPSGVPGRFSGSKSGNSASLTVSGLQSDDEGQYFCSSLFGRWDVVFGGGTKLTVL
2.9
PGT-128 (antibody, V domains shown) VH: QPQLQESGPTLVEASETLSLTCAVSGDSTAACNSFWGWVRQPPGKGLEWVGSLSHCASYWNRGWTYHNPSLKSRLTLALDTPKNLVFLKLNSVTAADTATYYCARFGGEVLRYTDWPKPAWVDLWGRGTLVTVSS VL: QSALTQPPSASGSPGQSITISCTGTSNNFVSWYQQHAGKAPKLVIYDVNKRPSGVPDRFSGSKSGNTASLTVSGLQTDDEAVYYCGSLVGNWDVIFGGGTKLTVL
2

Which Fold IC50 increase relative to wild-type is listed for PGT-131 (antibody, V domains shown) VH: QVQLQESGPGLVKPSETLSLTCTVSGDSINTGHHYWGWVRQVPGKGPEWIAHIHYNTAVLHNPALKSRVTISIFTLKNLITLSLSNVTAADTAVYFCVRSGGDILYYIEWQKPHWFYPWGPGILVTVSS VL: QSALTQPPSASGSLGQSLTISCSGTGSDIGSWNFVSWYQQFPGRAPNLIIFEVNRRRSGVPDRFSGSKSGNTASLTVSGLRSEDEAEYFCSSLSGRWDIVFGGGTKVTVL ?
11
